System: Mus musculus
Assay: Antidepressant activity in overnight fasted Mus musculus (mouse) assessed as decrease in immobility time at 10 mg/kg, ip administered 60 min prior to testing measured for 5 min by tail suspension test (reference value: 169.8 +/- 13 secs)
Assay type: functional
Settings: route intraperitoneal
Some compounds, each annotated with its measured Time.

smilesNotation	units	Time
COc1ccc(-c2nc(SCCN(C3CCCCC3)C3CCCCC3)n[nH]2)cc1	s	101.3
CCN(CC)CCSc1n[nH]c(-c2ccc(C)cc2)n1	s	178.3
COc1ccc(-c2nc(SCCN(C)C)n[nH]2)cc1	s	116.3
CN(C)CCSc1n[nH]c(-c2ccccc2)n1	s	117.2
CN(C)CCCN1c2ccccc2CCc2ccccc21	s	95.8
CCN(CC)CCSc1n[nH]c(-c2ccc(O)cc2)n1	s	171.8
CCN(CC)CCSc1n[nH]c(-c2ccc(Cl)cc2)n1	s	129.7
Clc1ccc(-c2nc(SCCN(C3CCCCC3)C3CCCCC3)n[nH]2)cc1	s	96.8
Clc1ccc(-c2nc(SCCN(C3CCCCC3)C3CCCCC3)n[nH]2)c(Cl)c1	s	96.5
Cc1ccc(-c2nc(SCCN(C)C)n[nH]2)cc1	s	172.8
CN(C)CCSc1n[nH]c(-c2ccc(Cl)cc2)n1	s	109.2
CCN(CC)CCSc1n[nH]c(-c2ccccc2O)n1	s	173.8
CN(C)CCSc1n[nH]c(-c2ccccc2O)n1	s	164.8
Cc1ccc(-c2nc(SCCN(C3CCCCC3)C3CCCCC3)n[nH]2)cc1	s	165
Oc1ccc(-c2nc(SCCN(C3CCCCC3)C3CCCCC3)n[nH]2)cc1	s	157.5
CCN(CC)CCSc1n[nH]c(-c2ccc(OC)cc2)n1	s	139
